# target-desc: recombinant HarmOBP10 (Helicoverpa armigera)
# protocol-details: Competitive fluorescence binding assay (displacement of 1-NPN from HarmOBP10)
# protocol-conditions: max conc 1.6 (titration 0.5–1.6 µM); protein and 1-NPN both 2 µM; percent of fluorescence without competitor; read-out: % at max (percent of fluorescence measured at the maximum concentration)
# Procedure: Emission fluorescence spectra were recorded on a Hitachi F-4500 at 25°C in a right angle configuration, with a 1 cm light path quartz cuvette and 5 nm slits for both excitation and emission. The protein was dissolved in 50 mM Tris-HCl buffer, pH 7.4, while ligands were added as 1 mM methanol solutions. The probe was excited at 337 nm and emission spectra were recorded between 380 and 450 nm. […]
measurement-kind: activity at 1.6 µM (%)

* CCCCCC/C=C\CCCCCCCC=O [(Z)-9-Hexadecenal] | 73
* CCCC/C=C\CCCCCCCCCC=O [(Z)-11-Hexadecenal] | 76
* CCCC/C=C\CCCCCCCCCCO [(Z)-11-Hexadecen-1-ol] | 74
* CCCCCC/C=C\CCCCCCCCO [(Z)-9-Hexadecen-1-ol] | 65

---

# target-desc: recombinant HarmOBP10 (Helicoverpa armigera, UniProt G9I573)
# Sequence (G9I573 entry or part of it): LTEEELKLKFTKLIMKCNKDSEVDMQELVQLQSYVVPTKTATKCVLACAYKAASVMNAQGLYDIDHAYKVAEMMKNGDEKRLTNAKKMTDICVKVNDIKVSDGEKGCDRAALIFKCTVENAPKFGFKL
# protocol-details: Competitive fluorescence binding assay (displacement of 1-NPN from HarmOBP10)
Known IC50 of a selection of compounds
Please reply with the bare figure in µM and do not write the unit itself.

These recorded examples may help you get a feel for the data.
* COc1cc(/C=C/C=O)ccc1O | 7.5
* C=CCCCCCCCCCC | 6

Proceed to the following item.
Exercise: Bench note: what IC50 did `CCCCCCCCCCCCCCO` show?
Solution: 1.8

---

# target-desc: recombinant HarmOBP10 (Helicoverpa armigera, UniProt G9I573)
# protocol-details: Competitive fluorescence binding assay (displacement of 1-NPN from HarmOBP10)
# protocol-conditions: calculated from IC50: KD = [IC50]/1+[1-NPN]/K1-NPN; read-out: KD (calculated dissociation constant)
measurement-kind: Kd (µM)

Solved cases (6 shown):
• CCCCCCCCCC(=O)OCC [Ethyl decanoate] = 4.3
• CC(CC=O)CCCC(C)(C)O (stereo not shown) [Hydroxycitronellal] = 10.5
• CC(CCCC(C)(C)O)CC(=O)O (stereo not shown) [Hydroxycitronellic acid] = 12.4
• CC(C)=CCC/C(C)=C/CC/C(C)=C/CO [Farnesol] = 5.4
• CCCCCCCCOC(=O)c1ccccc1 [n-Octyl benzoate] = 3.1
• CCCCOC(=O)c1ccc(C(C)(C)C)cc1 [Butyl p-tert-butylbenzoate] = 10.9

I. CCCCCCCCCCC(C)=O [2-Dodecanone]
II. CC(C)(C)c1ccc(C(=O)c2ccccc2)cc1 [p-tert-Butylbenzophenone]
III. CC(C)CCCC(C)CCOC(=O)c1ccccc1 (stereo not shown) [3,7-Dimethyloctyl benzoate]
Exercise: Highest Kd first, then in falling order down to the smallest. Please write the labels in the order that was asked for.
Solution: I, III, II
(I: 13.2 µM, III: 4.7 µM, II: 2.6 µM)

---

molecules and their reported pKd
# target-desc: recombinant HarmOBP10 (Helicoverpa armigera, UniProt G9I573)
# protocol-details: Competitive fluorescence binding assay (displacement of 1-NPN from HarmOBP10)
# protocol-conditions: calculated from IC50: KD = [IC50]/1+[1-NPN]/K1-NPN; read-out: KD (calculated dissociation constant)
In plain terms, pKd is the concentration in mol/L turned into minus its base-10 logarithm.

* CCCCCCOC(=O)c1ccccc1 [n-Hexyl benzoate] | 5.24
* CCCCC/C(C=O)=C/c1ccccc1 | 5.57
* COC(C=O)=Cc1ccccc1 | 5.01

Next molecule, pKd to be filled in.
Exercise: Reported pKd for CCCCOC(=O)C=Cc1ccccc1 [n-Butyl cinnamate] : what is it?
Solution: 5.01

Numbers sourced from paper PMC3264552.
